Reported % inhibition of probe binding at 10uM values for the following binders.
Target: Thrombin digested soluble HLA-DRB1*15:01 (CLIP0 placeholder construct) (human)
Assay: FP probe displacement; probe m27
Experimental endpoint: % inhibition of probe binding at 10uM (%)

Binder: LLRPGQIVAFDSTAQ (modifications not checked) [M248]
Measured: 61
//
Binder: PPIDGYPNHPCFEPE (modifications not checked) [M230]
Measured: 82
//
Binder: PQLRQWWAQGADPLA (modifications not checked) [M247]
Measured: 58
//
Binder: ASLRSWPSTWAPWAS (modifications not checked) [M371]
Measured: 74
//
Binder: PQILPYPAPEEAQEN (modifications not checked) [M231]
Measured: 66
